Tested on: Plasmodium berghei
Experiment: Antimalarial activity against Plasmodium berghei infected in mouse assessed as survival time at 5 mg/kg (reference value: 6.1 days)
Type: functional
assayReadout: MST
Kindly format the answer as number then unit.

Reference set, count: 5
>>> print(df.to_string())
                                   compound  observedmeasurement
0  COc1cc(NC(C)CCCN)c2nccc(C)c2c1OCCCCCc1cccs1.O=C(O)/C=C/C(=O)O (stereo unspecified)             6.6 days
1  COc1cc(NC(C)CCCN)c2nccc(C)c2c1OCCCCCc1ccco1.O=C(O)/C=C/C(=O)O (stereo unspecified)             7.7 days
2  COc1cc(NC(C)CCCN)c2nccc(C)c2c1OCCCCCCc1ccccc1.O=C(O)/C=C/C(=O)O (stereo unspecified)             5.9 days
3  COc1cc(NC(C)CCCN)c2nccc(C)c2c1OCCCCc1ccccc1.O=C(O)/C=C/C(=O)O (stereo unspecified)             7.6 days
4  COc1cc(NC(C)CCCN)c2nccc(C)c2c1OCCCCCCCCc1ccccc1.O=C(O)/C=C/C(=O)O (stereo unspecified)             5.7 days

// moving on: another record for MST
Missing value: MST, Plasmodium berghei, entry COc1cc(NC(C)CCCN)c2nccc(C)c2c1OCCCCCc1ccccc1.O=C(O)/C=C/C(=O)O (stereo unspecified) . Fill in? 7.9 days

// data source = ChEMBL document CHEMBL3351451
